assayed-target: CB-2 receptor (Human CB2R, Cannabinoid receptor 2) (Homo sapiens (Human))
Sequence (P34972 whole entry): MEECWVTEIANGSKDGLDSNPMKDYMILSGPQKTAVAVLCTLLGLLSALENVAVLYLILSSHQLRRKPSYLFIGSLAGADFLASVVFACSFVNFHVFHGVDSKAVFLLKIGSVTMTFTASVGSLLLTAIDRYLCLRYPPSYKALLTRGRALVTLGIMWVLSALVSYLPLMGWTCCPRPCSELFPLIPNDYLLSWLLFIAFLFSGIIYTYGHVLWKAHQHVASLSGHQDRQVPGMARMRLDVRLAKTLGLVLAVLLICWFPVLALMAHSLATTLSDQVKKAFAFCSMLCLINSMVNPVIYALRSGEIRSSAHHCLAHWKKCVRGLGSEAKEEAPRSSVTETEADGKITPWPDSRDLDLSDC
assay-comment: cAMP HTRF assay, CB-2 in stably transfected HEK-293 cells
applied-conditions: 250 nM Forskolin, mean where tested more than once, read-out: CB2 EC50
pEC50: −log10 of the molar value.
measure-name: pEC50

{"smiles-entry": "NNC(=O)CCOCCOCCOCCOCCOCCOCCOCCOCCOCCOCCOCCOCCNC(=O)OCCOCCOCCOc1cc(NC2CCN(S(=O)(=O)C(F)(F)F)CC2)c2cc(C(c3ccc(Cl)cc3)c3ccc(Cl)cc3)ccc2n1", "pEC50": 5.27}
{"smiles-entry": "COCCOCCOCCOCCOCCOCCOCCOCCOCCOCCOCCOCCNC(=O)OCc1ccc(OCCOCCOCCOCCOCCOCCOc2cc(NC3CCN(S(=O)(=O)C(F)(F)F)CC3)c3cc(C(c4ccc(Cl)cc4)c4ccc(Cl)cc4)ccc3n2)cc1", "pEC50": 5.39}

Data provenance: patent US9815790B2
